From: the RNAGym collection of RNA variant scans (doi:10.1073/pnas.2313332121)

B1: TPR t1 (parent)
chain: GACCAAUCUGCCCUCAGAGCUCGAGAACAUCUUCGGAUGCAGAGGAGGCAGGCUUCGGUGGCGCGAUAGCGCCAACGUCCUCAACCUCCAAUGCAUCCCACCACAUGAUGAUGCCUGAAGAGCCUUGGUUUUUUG

Variants of: B1
Experiment: polymerase ribozyme fitness, log enrichment relative to wild type (log ratio); higher = more active; in vitro selection for triplet polymerase activity
Tick Y if polymerase ribozyme fitness (log ratio) is -3 or greater. Tick N if polymerase ribozyme fitness (log ratio) is less than -3.

The following variants have reported results that may help.
C62U A111U :: Y
A50C C62A U106A A111G C114U C123A :: N
U9G C76U :: Y
C4U C20A G120U :: N
A2C A41U U78G :: N
G69U C115A :: Y

Moving on to the next variant.
### Prompt For this variant, is measured polymerase ribozyme fitness (log ratio) -3 or higher? C11U C82A
### Response Y
